Origin of the recorded values: paper PMC5197073

measurement protocol: Intratumoral drug concentration and distribution by MALDI-MSI in C26 tumors
Format: in vivo, mouse
protocol conditions: C26 tumors, 100 mg/kg p.o. for two weeks
experimental endpoint: intratumoral drug distribution (MALDI-MSI)

{"compound structure string": "CC1(C)CNc2cc(NC(=O)c3cccnc3NCc3ccncc3)ccc21", "value observed": "inhomogeneous"}
{"compound structure string": "CNC(=O)c1cc(Oc2ccc(NC(=O)Nc3ccc(Cl)c(C(F)(F)F)c3)cc2)ccn1", "value observed": "Only traces"}
{"compound structure string": "Clc1ccc(Nc2nnc(Cc3ccncc3)c3ccccc23)cc1", "value observed": "Only traces"}
{"compound structure string": "Cc1ccc(Nc2nccc(N(C)c3ccc4c(C)n(C)nc4c3)n2)cc1S(N)(=O)=O", "value observed": "inhomogeneous"}
